- Test system: rat FAAH (Rattus norvegicus, UniProt P97612)
- Construct: crude homogenate
- Sequence (P97612 whole entry): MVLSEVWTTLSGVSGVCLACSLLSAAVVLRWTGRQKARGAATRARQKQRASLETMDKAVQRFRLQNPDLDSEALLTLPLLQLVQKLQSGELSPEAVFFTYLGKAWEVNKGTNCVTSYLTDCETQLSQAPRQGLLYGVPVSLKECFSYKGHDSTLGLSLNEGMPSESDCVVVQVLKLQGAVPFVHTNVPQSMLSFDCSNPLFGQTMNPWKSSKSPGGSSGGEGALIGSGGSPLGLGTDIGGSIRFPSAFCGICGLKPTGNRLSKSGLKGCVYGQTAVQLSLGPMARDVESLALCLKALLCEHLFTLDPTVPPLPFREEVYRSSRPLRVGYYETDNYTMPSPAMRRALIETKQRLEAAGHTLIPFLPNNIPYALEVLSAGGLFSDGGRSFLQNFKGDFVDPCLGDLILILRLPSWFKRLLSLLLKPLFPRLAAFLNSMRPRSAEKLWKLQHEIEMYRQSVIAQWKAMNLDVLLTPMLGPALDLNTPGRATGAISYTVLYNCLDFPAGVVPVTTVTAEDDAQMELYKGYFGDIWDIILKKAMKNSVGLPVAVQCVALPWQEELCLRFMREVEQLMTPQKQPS
- Run description: Assay Method 2: FAAH assay, 3H-anandamide hydrolysis in homogenate of cells transfected with rat FAAH
- Condition details: cell homogenate, 3H-AEA 80 nM, 1 h at rt, average of results
Where a name gives a salt, the structure may show the parent alone.
# Y = IC50 below 500 nM (exclusive); N = IC50 at/above 500 nM

Q: In plain terms, does "O=C(Nc1cnccc1Cl)N1CC(CCOc2cccc(Oc3ccc(Cl)cn3)c2)C1" come in under 500 nM for IC50?
Ans: Y

Q: Entry "O=C(Nc1cccnc1)N1CC(CCOc2ccc(Cl)c(C(F)(F)F)c2)C1" please
Ans: Y

Q: Entry "O=C(Nc1cccnc1)N1CC(CCOc2cccc(Oc3ccc(Cl)cc3)c2)C1" please
Ans: Y

Q: Entry O=C(Nc1cccnc1)N1CC(CCOCc2ccc(Cl)c(Cl)c2)C1 [Example 68, trifluoroacetate salt] please
Ans: N

Q: Entry "O=C(Nc1cccnc1)N1CC(COc2ccc(Cl)c(Cl)c2)C1" please
Ans: N

Q: Entry "O=C(Nc1noc2ccccc12)N1CC(CCOc2cccc(Oc3ccc(Cl)cc3)c2)C1" please
Ans: Y

Q: Entry "O=C(Nc1cccnc1)N1CC(COc2cccc(Oc3ccccc3)c2)C1" please
Ans: Y

Q: Entry CS(=O)(=O)c1ccc(Oc2cccc(OCC3CCN(C(=O)Nc4cccnc4)C3)c2)cc1 (centres unmarked) please
Ans: N
